assay: Pharmacokinetic study of unlabeled (cold) analogs in CD1 mice; assay type: in vivo; details: mouse, in vivo, unlabeled compound, read-out: Vss
VALUE TYPE: Vd
Could you give the number and then its unit, please?

1) COc1cc2c(c(OC)c1OC)-c1ccc(OC)c(=O)cc1[C@@H](NC(=O)CCCCCC(C)(C(=O)O)C(=O)O)CC2 : 0.435 L/kg

Next up:
Please give measured Vd of the following entry: CC(CCCCCF)(C(=O)O)C(=O)O [ML-10, reference compound]
0.152 L/kg

###

test: Pharmacokinetic study of unlabeled (cold) analogs in CD1 mice; format: in vivo; conditions: mouse, in vivo, unlabeled compound
Below, each of the molecules is paired with its reported half-life value.
The answer is to be given in min; state only the numeric part.

1) COc1cc2c(c(OC)c1OC)-c1ccc(OC)c(=O)cc1[C@@H](NC(=O)CCCCCC(C)(C(=O)O)C(=O)O)CC2 : 7.92

Next up:
Please give measured half-life of the following entry: CC(CCCCCF)(C(=O)O)C(=O)O [ML-10, reference compound]
11.2

###

assay: Pharmacokinetic evaluation of tritiated candidates in naive and chemotherapy treated mice; conditions: mouse, in vivo; Naive mice, tritiated; read-out: t1/2
VALUE TYPE: half-life (min)
The answer is to be given in min; state only the numeric part.

Please give measured half-life of the following entry: CC(CCCCCF)(C(=O)O)C(=O)O [ML-10, reference compound]
10

###

experiment: Pharmacokinetic evaluation of tritiated candidates in naive and chemotherapy treated mice; details: mouse, in vivo, t1/2
Below, each of the compounds is paired with its reported half-life value.
Could you give the number and then its unit, please?

1. CN(CCCCC(C)(C(=O)O)C(=O)O)c1ncc([N+](=O)[O-])s1 [APO-650] : 8 min

Next up:
Please give measured half-life of the following entry: O=C(O)c1ccc(CCC[18F])cc1C(=O)O [APO-630, 4-(3-^18fluoropropyl)phthalic acid]
10 min

###

Below, each of the compounds is paired with its reported AUC(0-inf) value.
assay: Pharmacokinetic study of unlabeled (cold) analogs in CD1 mice; type: in vivo; settings: mouse, in vivo, unlabeled compound
The answer is to be given in ng·h/mL; state only the numeric part.

1. CC(CCCCCF)(C(=O)O)C(=O)O [ML-10, reference compound] : 32.6

Please give measured AUC(0-inf) of the following entry: "COc1cc2c(c(OC)c1OC)-c1ccc(OC)c(=O)cc1[C@@H](NC(=O)CCCCCC(C)(C(=O)O)C(=O)O)CC2"
5.16
